Experiment: Half life of the compound assessed as snake venom phosphodiesterase-mediated compound hydrolysis at 9 uM by HPLC analysis
Assay type: ADME
Conditions: serpentes
Hi there, I'd appreciate the recorded half-life at 9 µM for every entry that follows.
Answers are plain numbers, in min.

Cc1nc2c(N)ncnc2n1[C@@H]1O[C@H](COP(=O)(O)O[C@@H]2[C@H](O)[C@@H](COP(=O)(O)O[C@@H]3[C@H](O)[C@@H](COP(=O)(O)O[C@@H]4[C@H](O)[C@@H](C)O[C@H]4n4cc(F)c(=O)[nH]c4=O)O[C@H]3n3cnc4c(N)ncnc43)O[C@H]2n2cnc3c(N)ncnc32)[C@@H](O)[C@H]1O ... 9

// query GET /values?readout=half-life at 9 µM&item= Nc1ncnc2c1ncn2[C@@H]1O[C@H](COP(=O)(O)O[C@@H]2[C@H](O)[C@@H](COP(=O)(O)O[C@@H]3[C@H](O)[C@@H](COP(=O)(O)O[C@@H]4[C@H](O)[C@@H](COP(=O)(O)O)O[C@H]4n4cnc5c(N)ncnc54)O[C@H]3n3cnc4c(N)ncnc43)O[C@H]2n2cnc3c(N)ncnc32)[C@@H](O)[C@H]1O
// result 6.4

====

Target: 2-5A-dependent ribonuclease (Homo sapiens, UniProt Q05823)
Experiment: Induction of recombinant human RNase L activity expressed in Escherichia coli using F-5'-r(C11U2C7)-3' as substrate by polyacrylamide gel electrophoresis
Conditions: read-out: EC50
RECORDED ENDPOINT: pEC50
Give bare numbers, as −log10 of the molar value.

Reference set, count: 2
Nc1ncnc2c1ncn2[C@@H]1O[C@H](COP(=O)(O)O[C@@H]2[C@H](O)[C@@H](COP(=O)(O)O[C@@H]3[C@H](O)[C@@H](COP(=O)(O)O[C@@H]4[C@H](O)[C@@H](COP(=O)(O)O)O[C@H]4n4cnc5c(N)ncnc54)O[C@H]3n3cnc4c(N)ncnc43)O[C@H]2n2cnc3c(N)ncnc32)[C@@H](O)[C@H]1O ... 7.89
Cc1nc2c(N)ncnc2n1[C@@H]1O[C@H](COP(=O)(O)O[C@@H]2[C@H](O)[C@@H](COP(=O)(O)O[C@@H]3[C@H](O)[C@@H](COP(=O)(O)O[C@H]4[C@@H](O)[C@H](n5ccc(=O)[nH]c5=O)O[C@@H]4CO)O[C@H]3n3cnc4c(N)ncnc43)O[C@H]2n2cnc3c(N)ncnc32)[C@@H](O)[C@H]1O ... 6.87

// query Fill blank: measured pEC50 of the molecule Cc1nc2c(N)ncnc2n1[C@@H]1O[C@H](COP(=O)(O)O[C@@H]2[C@H](O)[C@@H](COP(=O)(O)O[C@@H]3[C@H](O)[C@@H](COP(=O)(O)O[C@@H]4[C@H](O)[C@@H](C)O[C@H]4n4cc(F)c(=O)[nH]c4=O)O[C@H]3n3cnc4c(N)ncnc43)O[C@H]2n2cnc3c(N)ncnc32)[C@@H](O)[C@H]1O is ____.
// result 9.35

====

Target: 2-5A-dependent ribonuclease (Homo sapiens) (UniProt Q05823)
Sequence (whole entry): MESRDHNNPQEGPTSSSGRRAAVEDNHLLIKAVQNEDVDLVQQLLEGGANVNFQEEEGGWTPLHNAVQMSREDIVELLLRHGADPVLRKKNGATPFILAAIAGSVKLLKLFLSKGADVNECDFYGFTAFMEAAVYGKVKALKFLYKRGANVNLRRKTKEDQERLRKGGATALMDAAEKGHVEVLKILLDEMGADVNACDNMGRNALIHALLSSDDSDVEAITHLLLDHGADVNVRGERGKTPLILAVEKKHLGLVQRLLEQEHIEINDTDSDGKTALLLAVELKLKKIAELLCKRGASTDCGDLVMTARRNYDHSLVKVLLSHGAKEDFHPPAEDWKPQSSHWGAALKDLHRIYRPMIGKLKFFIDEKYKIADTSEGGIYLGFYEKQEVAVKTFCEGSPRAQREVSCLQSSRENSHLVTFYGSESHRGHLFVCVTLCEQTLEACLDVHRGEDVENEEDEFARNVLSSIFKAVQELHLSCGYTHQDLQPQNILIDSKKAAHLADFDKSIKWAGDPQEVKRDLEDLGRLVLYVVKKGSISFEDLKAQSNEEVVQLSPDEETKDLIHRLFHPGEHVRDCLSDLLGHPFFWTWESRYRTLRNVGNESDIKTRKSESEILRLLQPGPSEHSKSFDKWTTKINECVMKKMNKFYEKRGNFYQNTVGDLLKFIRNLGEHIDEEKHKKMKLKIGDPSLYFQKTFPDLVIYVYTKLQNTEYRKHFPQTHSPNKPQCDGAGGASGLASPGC
Assay: Ratio of p5'A2'p5'A2'p5'A2'p5'A EC50 to compound EC50 for recombinant human RNase L activity
Please go through the items and note down their Ratio EC50.
Numbers only.

Observe how each entry below is paired with its result.
Cc1nc2c(N)ncnc2n1[C@@H]1O[C@H](COP(=O)(O)O[C@@H]2[C@H](O)[C@@H](COP(=O)(O)O[C@@H]3[C@H](O)[C@@H](COP(=O)(O)O[C@@H]4[C@H](O)[C@@H](CO)O[C@H]4n4ccc(=O)[nH]c4=O)O[C@H]3n3cnc4c(N)ncnc43)O[C@H]2n2cnc3c(N)ncnc32)[C@@H](O)[C@H]1O ... 5.4
Nc1ncnc2c1ncn2[C@@H]1O[C@H](COP(=O)(O)O[C@@H]2[C@H](O)[C@@H](COP(=O)(O)O[C@@H]3[C@H](O)[C@@H](COP(=O)(O)O[C@@H]4[C@H](O)[C@@H](COP(=O)(O)O)O[C@H]4n4ccc(=O)[nH]c4=O)O[C@H]3n3cnc4c(N)ncnc43)O[C@H]2n2cnc3c(N)ncnc32)[C@@H](O)[C@H]1O ... 0.15
Cc1nc2c(N)ncnc2n1[C@@H]1O[C@H](COP(=O)(O)O[C@@H]2[C@H](O)[C@@H](COP(=O)(O)O[C@@H]3[C@H](O)[C@@H](COP(=O)(O)O[C@@H]4[C@H](O)[C@@H](C)O[C@H]4n4cc(F)c(=O)[nH]c4=O)O[C@H]3n3cnc4c(N)ncnc43)O[C@H]2n2cnc3c(N)ncnc32)[C@@H](O)[C@H]1O ... 28.9
Cc1nc2c(N)ncnc2n1[C@@H]1O[C@H](COP(=O)(O)O[C@@H]2[C@H](O)[C@@H](COP(=O)(O)O[C@@H]3[C@H](O)[C@@H](COP(=O)(O)O[C@@H]4[C@H](O)[C@@H](COP(=O)(O)O)O[C@H]4n4ccc(=O)[nH]c4=O)O[C@H]3n3cnc4c(N)ncnc43)O[C@H]2n2cnc3c(N)ncnc32)[C@@H](O)[C@H]1O ... 4.8
Cc1nc2c(N)ncnc2n1[C@@H]1O[C@H](COP(=O)(O)O[C@@H]2[C@H](O)[C@@H](COP(=O)(O)O[C@@H]3[C@H](O)[C@@H](COP(=O)(O)O[C@@H]4[C@H](O)[C@@H](CO)O[C@H]4n4cnc5c(N)ncnc54)O[C@H]3n3cnc4c(N)ncnc43)O[C@H]2n2cnc3c(N)ncnc32)[C@@H](O)[C@H]1O ... 5.6

State recorded Ratio EC50 for all listed compounds.
1. Cc1nc2c(N)ncnc2n1[C@@H]1O[C@H](COP(=O)(O)O[C@@H]2[C@H](O)[C@@H](COP(=O)(O)O[C@@H]3[C@H](O)[C@@H](COP(=O)(O)O[C@H]4[C@@H](O)[C@H](n5ccc(=O)[nH]c5=O)O[C@@H]4CO)O[C@H]3n3cnc4c(N)ncnc43)O[C@H]2n2cnc3c(N)ncnc32)[C@@H](O)[C@H]1O
2. Cc1nc2c(N)ncnc2n1[C@@H]1O[C@H](COP(=O)(O)O[C@@H]2[C@H](O)[C@@H](COP(=O)(O)O[C@@H]3[C@H](O)[C@@H](COP(=O)(O)O[C@H]4[C@@H](O)[C@H](n5cnc6c(N)ncnc65)O[C@@H]4CO)O[C@H]3n3cnc4c(N)ncnc43)O[C@H]2n2cnc3c(N)ncnc32)[C@@H](O)[C@H]1O

// result
[0.1, 0.64]

====

Task for the reader: assign each of the following compounds its reported EC50.
Target: 2-5A-dependent ribonuclease (Homo sapiens)
Test: Induction of recombinant human RNase L activity expressed in Escherichia coli using F-5'-r(C11U2C7)-3' as substrate by polyacrylamide gel electrophoresis
Conditions: read-out: EC50
Write your answer as a measured quantity: the number, then the unit.

Worked examples follow.
Cc1nc2c(N)ncnc2n1[C@@H]1O[C@H](COP(=O)(O)O[C@@H]2[C@H](O)[C@@H](COP(=O)(O)O[C@@H]3[C@H](O)[C@@H](COP(=O)(O)O[C@@H]4[C@H](O)[C@@H](COP(=O)(O)O)O[C@H]4n4ccc(=O)[nH]c4=O)O[C@H]3n3cnc4c(N)ncnc43)O[C@H]2n2cnc3c(N)ncnc32)[C@@H](O)[C@H]1O ... 2.7 nM
Cc1nc2c(N)ncnc2n1[C@@H]1O[C@H](COP(=O)(O)O[C@@H]2[C@H](O)[C@@H](COP(=O)(O)O[C@@H]3[C@H](O)[C@@H](COP(=O)(O)O[C@H]4[C@@H](O)[C@H](n5cnc6c(N)ncnc65)O[C@@H]4CO)O[C@H]3n3cnc4c(N)ncnc43)O[C@H]2n2cnc3c(N)ncnc32)[C@@H](O)[C@H]1O ... 20.3 nM

From here, focus on the item given below.
// query Could you share which EC50 value was measured for Cc1nc2c(N)ncnc2n1[C@@H]1O[C@H](COP(=O)(O)O[C@@H]2[C@H](O)[C@@H](COP(=O)(O)O[C@@H]3[C@H](O)[C@@H](COP(=O)(O)O[C@@H]4[C@H](O)[C@@H](CO)O[C@H]4n4cnc5c(N)ncnc54)O[C@H]3n3cnc4c(N)ncnc43)O[C@H]2n2cnc3c(N)ncnc32)[C@@H](O)[C@H]1O ?
// result 2.3 nM

Reference source for all entries: ChEMBL document CHEMBL3817765
